test: Half life in mouse at 30 mg/kg, po; type: ADME, organism-based; settings: in vivo
measure: half-life (min)
Give just the number in min; leave the unit off.

input: Return value of half-life for input CCCCc1nc(C(C)C)c(CC(=O)OCC)c(=O)n1Cc1ccc(-c2ccccc2-c2noc(=O)[nH]2)cc1 , no commentary.
output: 41.4

* * *

test: AUClast in mouse at 10 mg/kg, po; format: ADME, organism-based; set-up: dose 10 mg/kg, route oral, time 0 - last; conditions: in vivo
measure: AUC(0-t) (ng·h/mL)
Give just the number in ng·h/mL; leave the unit off.

input: Return value of AUC(0-t) for input CCCCc1nc(C(C)C)c(CC(=O)OCC)c(=O)n1Cc1ccc(-c2ccccc2-c2noc(=O)[nH]2)cc1 , no commentary.
output: 502

This collection of values is drawn from ChEMBL document CHEMBL4330101.
